inhibition for assorted compounds
# ASSAY_TARGET: Muscarinic acetylcholine receptor M1 (Homo sapiens) (UniProt P11229)
# Sequence (P11229 whole entry): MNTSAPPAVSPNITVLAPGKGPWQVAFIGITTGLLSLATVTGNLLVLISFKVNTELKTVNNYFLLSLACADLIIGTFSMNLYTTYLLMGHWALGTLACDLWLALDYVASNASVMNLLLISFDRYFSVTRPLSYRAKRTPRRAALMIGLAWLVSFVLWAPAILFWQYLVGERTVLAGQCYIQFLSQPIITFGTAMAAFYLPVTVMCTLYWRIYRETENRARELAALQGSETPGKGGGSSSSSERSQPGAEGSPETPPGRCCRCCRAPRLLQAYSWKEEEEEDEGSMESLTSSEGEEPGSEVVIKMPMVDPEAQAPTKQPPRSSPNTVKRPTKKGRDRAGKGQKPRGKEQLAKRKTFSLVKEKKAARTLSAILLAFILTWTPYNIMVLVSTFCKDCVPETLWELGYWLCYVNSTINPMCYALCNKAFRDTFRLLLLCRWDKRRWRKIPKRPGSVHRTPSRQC
# ASSAY_EXPLANATION: Displacement of [3H]pirenzepine from human recombinant M1 receptor expressed in CHO cells at 1 uM
# Assay type: cell-based
Supply the numeric figure in %, leaving out any unit text.

# example entries with known answers
COMPOUND_STRING: Cc1cccc(S(=O)(=O)NCCCCN2CCN(c3noc4ccccc34)CC2)c1
VALUE_OBSERVED: -3

COMPOUND_STRING: O=S(=O)(NCCN1CCC(c2noc3cc(F)ccc23)CC1)c1ccc2ccccc2c1
VALUE_OBSERVED: -2

Now let's try a different one.
// query inhibition for `O=S(=O)(NCCCN1CCN(c2nsc3ccccc23)CC1)c1ccc2ccccc2c1` ?
// result 0
